Give measured In vitro activity compared to native-type peptide (%), vs GLP-1 for each item. Keep answers brief.
- SYSTEM_NAME: human GLP-1 receptor (human, UniProt P43220 24-463)
- PROTOCOL_DETAILS: cell-based or functional assay
Bridge positions count the residues as written; N and C are the ends. Square brackets hold non-standard residues; d marks the D form. Ends that are not written are not given here. * marks the point of attachment. Acetyl(2-(4-imidazolyl)) = O=C(Cc1c[nH]cn1)*; Aib = CC(C)(N)C(=O)O
All answers are understood in %, so give the number only.

Incoming: So what's the measured In vitro activity compared to native-type peptide (%), vs GLP-1 for this one? Y[Aib]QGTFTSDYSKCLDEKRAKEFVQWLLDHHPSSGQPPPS (bridge 16-20) [triple agonist of SEQ ID NO: 22]
Outgoing: 20.1

Incoming: Another binder: Y[Aib]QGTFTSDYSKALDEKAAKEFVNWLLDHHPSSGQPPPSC (bridge 16-20) [triple agonist of SEQ ID NO: 98]
Outgoing: 28.1

Incoming: Now try [Acetyl(2-(4-imidazolyl))]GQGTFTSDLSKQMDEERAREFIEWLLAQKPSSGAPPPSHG [triple agonist of SEQ ID NO: 17] .
Outgoing: 0.2

Incoming: Entry to check: {Acetyl(2-(4-imidazolyl))}-[Aib]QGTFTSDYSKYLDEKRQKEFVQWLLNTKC (bridge 15-19) [triple agonist of SEQ ID NO: 88]
Outgoing: 9.6

Incoming: What do you get for H[Aib]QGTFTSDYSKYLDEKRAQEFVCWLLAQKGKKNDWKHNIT [triple agonist of SEQ ID NO: 28] ?
Outgoing: 17.2
